tested on: LOX IMVI melanoma; test: NCI tumour cell line growth inhibition, 48 h
Recorded measurements of GI50, one per entry
reported property: GI50

- O=C(CC1(O)C(=O)Nc2ccc(F)cc21)c1ccc(C(=O)NCC2CCC3(CC2)OOC2(CCCCC2)OO3)cc1 (centres undefined): 0.309 µM
- CCCCCCNCCCNc1c2cc(OC)ccc2nc2cccc([N+](=O)[O-])c12: 0.272 µM
- CCN1[C@@H](C(=O)NC23CCC(C(=O)O)(CC2)CC3)[C@H](c2cccc(Cl)c2F)[C@]2(C(=O)Nc3cc(Cl)ccc32)C12CCCCC2: 0.259 µM
- Cc1cc(CCl)c(C)cc1CCl: 0.883 µM
- c1ccc(-c2nc3n(c2-c2ccc4c(c2)OCO4)CCC3)nc1: 7.46 µM
- COc1ccc2c(c1)C(=O)/C(=C/c1cccc(OCC(=O)Nc3nc(C)c(C)s3)c1)O2: < 0.0127 µM
- O=C(NN1C(=O)CSC1c1cccc(Cl)c1)C(O)c1ccccc1 (centres undefined): > 100 µM
- ClCc1cccc(Cn2cnc3c(Cl)nc(Cl)nc32)c1: 1.69 µM
- CC(=O)OC(C(=O)[O][Sn]([CH3])([CH3])[CH3])c1ccccc1 (centres undefined): > 100 µM
